biological target: 5-HT2AR S159A-mutated receptor (Homo sapiens, UniProt P28223, S159A); construct: expressed in transfected cells; host or cells: HEK 293T (transient transfection); mutant made by site-directed mutagenesis of 5-HT2AR-LgBiT; test: cell-based; assay type: cell-based
Sequence (P28223 whole entry S159A): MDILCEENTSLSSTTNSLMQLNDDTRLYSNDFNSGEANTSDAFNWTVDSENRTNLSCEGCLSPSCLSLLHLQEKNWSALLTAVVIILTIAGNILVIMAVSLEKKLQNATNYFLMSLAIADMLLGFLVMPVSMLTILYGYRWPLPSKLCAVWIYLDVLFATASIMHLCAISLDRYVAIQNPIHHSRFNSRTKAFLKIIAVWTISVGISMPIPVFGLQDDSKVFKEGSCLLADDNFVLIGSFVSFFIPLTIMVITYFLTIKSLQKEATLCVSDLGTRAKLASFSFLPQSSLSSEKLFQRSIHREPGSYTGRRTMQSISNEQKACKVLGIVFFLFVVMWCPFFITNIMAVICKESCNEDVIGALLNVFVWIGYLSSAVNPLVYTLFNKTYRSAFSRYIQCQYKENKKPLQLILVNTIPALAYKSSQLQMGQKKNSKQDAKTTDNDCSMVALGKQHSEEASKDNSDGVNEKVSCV
Sequence (P32121 whole entry partner): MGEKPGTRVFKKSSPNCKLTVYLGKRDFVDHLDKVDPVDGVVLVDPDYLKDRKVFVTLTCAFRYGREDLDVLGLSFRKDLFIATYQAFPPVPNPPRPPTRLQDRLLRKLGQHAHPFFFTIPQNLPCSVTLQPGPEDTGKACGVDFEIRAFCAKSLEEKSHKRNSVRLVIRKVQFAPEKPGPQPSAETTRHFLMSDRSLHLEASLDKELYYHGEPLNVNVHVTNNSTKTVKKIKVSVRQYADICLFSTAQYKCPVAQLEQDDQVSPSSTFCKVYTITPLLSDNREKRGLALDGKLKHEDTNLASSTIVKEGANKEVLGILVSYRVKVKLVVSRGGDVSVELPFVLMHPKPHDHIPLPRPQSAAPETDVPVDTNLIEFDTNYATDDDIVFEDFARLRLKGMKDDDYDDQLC
quantity-name: Reduction of agonist potency at 5-HT2AR S159A compared to WT, βarr2 recruitment assay

Give measured Reduction of agonist potency at 5-HT2AR S159A compared to WT, βarr2 recruitment assay for every item shown.
1. COc1cc(CCNC2COc3ccccc32)c(OC)cc1C#N (racemic) [(±)-6f]
2. COc1cc(CCNCc2cccc(O)c2)c(OC)cc1C#N

[out]
1. ~10 fold
2. ~10 fold
